The reported numbers originate from patent US7157430B2.

Biological target: UniProt P29452
Sequence (P29452 123-296 limits assumed): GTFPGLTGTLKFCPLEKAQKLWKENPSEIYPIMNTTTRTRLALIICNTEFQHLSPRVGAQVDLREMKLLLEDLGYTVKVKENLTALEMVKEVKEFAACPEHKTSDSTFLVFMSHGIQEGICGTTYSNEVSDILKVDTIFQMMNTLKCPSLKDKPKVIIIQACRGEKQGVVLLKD
Sequence (P29452 315-402 limits assumed): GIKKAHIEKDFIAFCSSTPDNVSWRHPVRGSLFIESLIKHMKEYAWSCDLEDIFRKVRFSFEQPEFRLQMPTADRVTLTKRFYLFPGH
Test: Dissociation constant Ki and irreversible rate constant k3 for irreversible inhibitors, ICE
Conditions: continuous assay 60 min, reaction initiated by adding enzyme
List of pKi values.
Kindly note that pKi refers to -log10 of the concentration in mol/L and answer with the value alone.

Previously resolved entries follow.
[
  {
    "COMPOUND": "CC(C)[C@H](NC(=O)COc1cccc2ccccc12)C(=O)N[C@@H](CC(=O)O)C(=O)COc1cc(F)cc(F)c1F",
    "pKi": 6.83
  },
  {
    "COMPOUND": "CC(C)[C@H](NC(=O)COc1cccc2ccccc12)C(=O)N[C@@H](CC(=O)O)C(=O)COc1ccnc(C(F)(F)F)n1",
    "pKi": 6.62
  },
  {
    "COMPOUND": "CC(C)[C@H](NC(=O)COc1cccc2ccccc12)C(=O)N[C@@H](CC(=O)O)C(=O)COc1ccccc1F",
    "pKi": 6.52
  }
]

q: Quick one: pKi of `CC(C)C[C@H](NC(=O)COc1c(C(=O)O)ccc2ccccc12)C(=O)N[C@@H](CC(=O)O)C(=O)COC(=O)c1c(Cl)cccc1Cl` ?
a: 6.40

q: Item under review: `CC(C)[C@H](NC(=O)COc1cccc2ccccc12)C(=O)N[C@@H](CC(=O)O)C(=O)COc1cc(F)c(F)cc1F` . Reported pKi?
a: 6.58

q: Quick check: pKi of `CC(C)C[C@H](NC(=O)COc1ccccc1-c1ccccc1)C(=O)N[C@@H](CC(=O)O)C(=O)COC(=O)c1c(Cl)cccc1Cl` ?
a: 6.50

* * *

Target: CPP32 (Homo sapiens, UniProt P42574)
Sequence (P42574 29-175 limits assumed, species assumed): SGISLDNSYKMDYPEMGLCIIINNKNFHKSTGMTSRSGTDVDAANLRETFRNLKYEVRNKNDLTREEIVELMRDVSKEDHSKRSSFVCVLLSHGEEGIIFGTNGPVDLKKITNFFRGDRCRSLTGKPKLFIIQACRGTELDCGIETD
Sequence (P42574 176-277 limits assumed, species assumed): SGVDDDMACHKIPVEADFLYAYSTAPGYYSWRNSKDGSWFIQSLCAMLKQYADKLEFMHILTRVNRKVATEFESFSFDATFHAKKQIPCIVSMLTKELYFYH
Assay: Dissociation constant Ki and irreversible rate constant k3 for irreversible inhibitors, CPP32
Conditions: continuous assay 60 min, reaction initiated by adding enzyme
Measured pKi accompanies every entry in the list below.
Worth noting: pKi values are minus log10 of concentrations stated in mol/L.

Answered examples (2):
[
  {
    "ENTRY_SMILES": "CC(C)C[C@H](NC(=O)COc1ccccc1-c1ccccc1)C(=O)N[C@@H](CC(=O)O)C(=O)COc1c(F)cc(F)cc1F",
    "SYSTEM_TESTED": "CPP32 (Homo sapiens, UniProt P42574)",
    "pKi": 7.64
  },
  {
    "ENTRY_SMILES": "CC(C)[C@H](NC(=O)COc1cccc2ccccc12)C(=O)N[C@@H](CC(=O)O)C(=O)COP(C)(C)=O",
    "SYSTEM_TESTED": "CPP32 (Homo sapiens, UniProt P42574)",
    "pKi": 6.47
  }
]

q: What does the data say about its pKi? Entry: `CC(C)[C@H](NC(=O)COc1cccc2ccccc12)C(=O)N[C@@H](CC(=O)O)C(=O)COc1c(F)c(F)cc(F)c1F`
a: 7.38

* * *

Biological target: UniProtKB Q14790
Sequence (Q14790 217-374 limits assumed, species assumed): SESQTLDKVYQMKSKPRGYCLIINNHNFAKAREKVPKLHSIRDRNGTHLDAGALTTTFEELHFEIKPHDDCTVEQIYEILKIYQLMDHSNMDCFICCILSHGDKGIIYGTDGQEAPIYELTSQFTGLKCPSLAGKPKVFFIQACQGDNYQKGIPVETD
Sequence (Q14790 385-479 limits assumed, species assumed): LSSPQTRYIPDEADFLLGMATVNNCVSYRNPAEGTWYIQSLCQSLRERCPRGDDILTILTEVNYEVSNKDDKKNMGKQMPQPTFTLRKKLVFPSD
Assay: Dissociation constant Ki and irreversible rate constant k3 for irreversible inhibitors, Mch5
Settings: continuous assay 60 min, reaction initiated by adding enzyme
READOUT: Ki (nM)
Write down the numeric answer in nM and omit the unit.

Field: example entries. Status: answers known.
[
  {
    "ENTRY_SMILES": "CC(C)C[C@H](NC(=O)COc1ccccc1-c1ccccc1)C(=O)N[C@@H](CC(=O)O)C(=O)COc1c(F)cc(F)cc1F",
    "Ki (nM)": 252
  },
  {
    "ENTRY_SMILES": "COC(=O)c1cc(OCC(=O)[C@H](CC(=O)O)NC(=O)[C@@H](NC(=O)COc2cccc3ccccc23)C(C)C)no1",
    "Ki (nM)": 155
  }
]

q: Consider the molecule `CC(C)[C@H](NC(=O)COc1ccc2ccccc2c1)C(=O)N[C@@H](CC(=O)O)C(=O)COC(=O)c1c(Cl)cccc1Cl` and give its measured Ki.
a: 136

* * *

Target: MCH-2 (Homo sapiens, UniProt P55212)
Sequence (P55212 24-179 limits assumed): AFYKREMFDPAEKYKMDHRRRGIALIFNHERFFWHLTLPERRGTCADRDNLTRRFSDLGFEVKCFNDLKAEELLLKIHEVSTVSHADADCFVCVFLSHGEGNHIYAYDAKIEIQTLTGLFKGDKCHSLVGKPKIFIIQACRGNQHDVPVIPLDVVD
Sequence (P55212 194-293 limits assumed): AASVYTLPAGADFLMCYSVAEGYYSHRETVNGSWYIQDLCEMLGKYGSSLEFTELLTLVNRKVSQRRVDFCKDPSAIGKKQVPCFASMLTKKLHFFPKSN
Experiment: Dissociation constant Ki and irreversible rate constant k3 for irreversible inhibitors, Mch2
Format: biochemical
Conditions: continuous assay 60 min, reaction initiated by adding enzyme
Measured MCH-2 k3/Ki of individual entries

[
  {
    "COMPOUND": "CC(C)[C@H](NC(=O)CCOc1ccccc1)C(=O)N[C@@H](CC(=O)O)C(=O)COc1c(F)c(F)cc(F)c1F",
    "OBSERVED_MEASUREMENT": "36,600 M^−1s^−1"
  },
  {
    "COMPOUND": "CC(C)[C@H](NC(=O)COc1cccc2ccccc12)C(=O)N[C@@H](CC(=O)O)C(=O)COP(C)(=O)c1ccc(F)cc1 (stereo partly shown)",
    "OBSERVED_MEASUREMENT": "60,400 M^−1s^−1"
  },
  {
    "COMPOUND": "CC(C)[C@H](NC(=O)COc1cccc2ccccc12)C(=O)N[C@@H](CC(=O)O)C(=O)COP(=O)(c1ccccc1)c1ccccc1",
    "OBSERVED_MEASUREMENT": "39,700 M^−1s^−1"
  }
]

q: Query MCH-2 k3/Ki on MCH-2 (Homo sapiens, UniProt P55212) for `CC(C)[C@H](NC(=O)COc1cccc2ccccc12)C(=O)N[C@@H](CC(=O)O)C(=O)COc1cccc(F)c1F`
a: 1,610 M^−1s^−1

* * *

Target: MCH-3 (Homo sapiens, UniProt P55210)
Sequence (P55210 24-198 limits assumed, species assumed): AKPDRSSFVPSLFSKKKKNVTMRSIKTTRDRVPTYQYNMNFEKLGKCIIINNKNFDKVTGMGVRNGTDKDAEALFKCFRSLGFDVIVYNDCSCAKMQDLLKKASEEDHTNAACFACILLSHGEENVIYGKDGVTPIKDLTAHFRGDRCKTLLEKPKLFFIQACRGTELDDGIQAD
Sequence (P55210 207-303 limits assumed, species assumed): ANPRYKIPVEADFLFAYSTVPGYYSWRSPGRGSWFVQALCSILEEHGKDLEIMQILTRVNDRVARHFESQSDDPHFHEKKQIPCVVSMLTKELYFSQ
Assay: Fluorescence enzyme assay, IC50 determination, Mch3
Type: biochemical
Settings: Table 3; method of Preparation 3A; read-out: MCH3 I50
READOUT: pIC50
The scale used: pIC50 is minus the common logarithm of the concentration in molar units.

[
  {
    "COMPOUND": "CC(C)C[C@H](NC(=O)COc1cccc2ncccc12)C(=O)N[C@H](C=O)CC(=O)O [Example 32]",
    "SYSTEM_TESTED": "MCH-3 (Homo sapiens, UniProt P55210)",
    "READOUT": "pIC50",
    "OBSERVED_MEASUREMENT": 5.41
  },
  {
    "COMPOUND": "CC(C)C[C@H](NC(=O)CCOc1ccccc1)C(=O)N[C@H](C=O)CC(=O)O [Example 37]",
    "SYSTEM_TESTED": "MCH-3 (Homo sapiens, UniProt P55210)",
    "READOUT": "pIC50",
    "OBSERVED_MEASUREMENT": 5.22
  },
  {
    "COMPOUND": "CC(C)C[C@H](NC(=O)COc1ccnc2ccccc12)C(=O)N[C@H](C=O)CC(=O)O [Example 31]",
    "SYSTEM_TESTED": "MCH-3 (Homo sapiens, UniProt P55210)",
    "READOUT": "pIC50",
    "OBSERVED_MEASUREMENT": 5.34
  },
  {
    "COMPOUND": "CC(C)C[C@H](NC(=O)CCOc1cccc2ccccc12)C(=O)N[C@H](C=O)CC(=O)O [Example 22]",
    "SYSTEM_TESTED": "MCH-3 (Homo sapiens, UniProt P55210)",
    "READOUT": "pIC50",
    "OBSERVED_MEASUREMENT": 5.86
  },
  {
    "COMPOUND": "CC(C)C[C@H](NC(=O)COc1cccc2c1CCCC2)C(=O)N[C@H](C=O)CC(=O)O [Example 51]",
    "SYSTEM_TESTED": "MCH-3 (Homo sapiens, UniProt P55210)",
    "READOUT": "pIC50",
    "OBSERVED_MEASUREMENT": 5.56
  },
  {
    "COMPOUND": "CC(C)C[C@H](NC(=O)COc1cccc2cnccc12)C(=O)N[C@H](C=O)CC(=O)O [Example 33]",
    "SYSTEM_TESTED": "MCH-3 (Homo sapiens, UniProt P55210)",
    "READOUT": "pIC50",
    "OBSERVED_MEASUREMENT": 5.46
  },
  {
    "COMPOUND": "CC(C)C[C@H](NC(=O)COc1nccc2ccccc12)C(=O)N[C@H](C=O)CC(=O)O [Example 30]",
    "SYSTEM_TESTED": "MCH-3 (Homo sapiens, UniProt P55210)",
    "READOUT": "pIC50",
    "OBSERVED_MEASUREMENT": 4.46
  },
  {
    "COMPOUND": "CC(C)C[C@H](NC(=O)COc1ccc(Cc2ccccc2)cc1)C(=O)N[C@H](C=O)CC(=O)O [Example 43]",
    "SYSTEM_TESTED": "MCH-3 (Homo sapiens, UniProt P55210)",
    "READOUT": "pIC50",
    "OBSERVED_MEASUREMENT": 5.36
  }
]

q: Param readout= pIC50; system= MCH-3 (Homo sapiens, UniProt P55210); entry= CC(C)C[C@H](NC(=O)COc1ccc(-c2ccccc2)cc1)C(=O)N[C@H](C=O)CC(=O)O [Example 41] ; returns value.
a: 4.92

q: I'm curious: which pIC50 was measured for CC(C)C[C@H](NC(=O)CCC(=O)c1cccc2ccccc12)C(=O)N[C@H](C=O)CC(=O)O [Example 19] tested on MCH-3 (Homo sapiens, UniProt P55210)?
a: 4.95

q: Hi! What's the reported pIC50 for CC(C)C[C@H](NC(=O)CCC(=O)c1ccc2ccccc2c1)C(=O)N[C@H](C=O)CC(=O)O [Example 21] on MCH-3 (Homo sapiens, UniProt P55210)?
a: 5.13
